- MEASUREMENT_CONTEXT: 338.15 K; 10000 kPa; Liquid
± gives the expanded uncertainty stated by the source.

{"COMPOUND": "CCOC(C)=O [ethyl acetate]", "mass density": "857.1 ± 4.3 kg/m3"}
{"COMPOUND": "CCCOC(C)=O [propyl ethanoate]", "mass density": "848.6 ± 4.5 kg/m3"}
{"COMPOUND": "CCCCOC(C)=O [butyl ethanoate]", "mass density": "845.5 ± 4.3 kg/m3"}
{"COMPOUND": "CCCCCOC(C)=O [pentyl ethanoate]", "mass density": "842.9 ± 4.5 kg/m3"}

###

- MEASUREMENT_CONTEXT: 328.15 K; 15000 kPa; Liquid
# key: entry, value: mass density

{"COMPOUND": "CCCCOC(C)=O [butyl ethanoate]", "READING_UNIT": "kg/m3", "mass density": 859.3}
{"COMPOUND": "CCOC(C)=O [ethyl acetate]", "READING_UNIT": "kg/m3", "mass density": 873.9}
{"COMPOUND": "CCCOC(C)=O [propyl ethanoate]", "READING_UNIT": "kg/m3", "mass density": 864}
{"COMPOUND": "CCCCCOC(C)=O [pentyl ethanoate]", "READING_UNIT": "kg/m3", "mass density": 855.9}

###

- MEASUREMENT_CONTEXT: 303.15 K; 35000 kPa; Liquid
READOUT_TYPE: mass density (kg/m3)

{"COMPOUND": "CCCCOC(C)=O [butyl ethanoate]", "ENDPOINT_VALUE": 899.1}
{"COMPOUND": "CCOC(C)=O [ethyl acetate]", "ENDPOINT_VALUE": 921.2}
{"COMPOUND": "CCCCCOC(C)=O [pentyl ethanoate]", "ENDPOINT_VALUE": 893.8}
{"COMPOUND": "CCCOC(C)=O [propyl ethanoate]", "ENDPOINT_VALUE": 906.9}

###

mass density for assorted molecules
- MEASUREMENT_CONTEXT: 353.15 K; 25000 kPa; Liquid

{"MOLECULE": "CCCOC(C)=O [propyl ethanoate]", "READING_UNIT": "kg/m3", "mass density": 850}
{"MOLECULE": "CCCCCOC(C)=O [pentyl ethanoate]", "READING_UNIT": "kg/m3", "mass density": 844.3}
{"MOLECULE": "CCCCOC(C)=O [butyl ethanoate]", "READING_UNIT": "kg/m3", "mass density": 846.7}
{"MOLECULE": "CCOC(C)=O [ethyl acetate]", "READING_UNIT": "kg/m3", "mass density": 856.1}

###

Overview of reported mass density across a group of compounds:
- MEASUREMENT_CONTEXT: 298.15 K; 2000 kPa; Liquid
Numbers after ± are expanded uncertainties.

{"COMPOUND": "CCOC(C)=O [ethyl acetate]", "mass density": "895.7 ± 3.4 kg/m3"}
{"COMPOUND": "CCCOC(C)=O [propyl ethanoate]", "mass density": "883.4 ± 3.6 kg/m3"}
{"COMPOUND": "CCCCCOC(C)=O [pentyl ethanoate]", "mass density": "872.7 ± 3.6 kg/m3"}
{"COMPOUND": "CCCCOC(C)=O [butyl ethanoate]", "mass density": "877.2 ± 3.4 kg/m3"}
